meta.source: paper PMC3505976

Molecular target: T1, hIghmbp2hd (helicase core) (human (Homo sapiens), UniProt P38935 1-652)
T1 sequence: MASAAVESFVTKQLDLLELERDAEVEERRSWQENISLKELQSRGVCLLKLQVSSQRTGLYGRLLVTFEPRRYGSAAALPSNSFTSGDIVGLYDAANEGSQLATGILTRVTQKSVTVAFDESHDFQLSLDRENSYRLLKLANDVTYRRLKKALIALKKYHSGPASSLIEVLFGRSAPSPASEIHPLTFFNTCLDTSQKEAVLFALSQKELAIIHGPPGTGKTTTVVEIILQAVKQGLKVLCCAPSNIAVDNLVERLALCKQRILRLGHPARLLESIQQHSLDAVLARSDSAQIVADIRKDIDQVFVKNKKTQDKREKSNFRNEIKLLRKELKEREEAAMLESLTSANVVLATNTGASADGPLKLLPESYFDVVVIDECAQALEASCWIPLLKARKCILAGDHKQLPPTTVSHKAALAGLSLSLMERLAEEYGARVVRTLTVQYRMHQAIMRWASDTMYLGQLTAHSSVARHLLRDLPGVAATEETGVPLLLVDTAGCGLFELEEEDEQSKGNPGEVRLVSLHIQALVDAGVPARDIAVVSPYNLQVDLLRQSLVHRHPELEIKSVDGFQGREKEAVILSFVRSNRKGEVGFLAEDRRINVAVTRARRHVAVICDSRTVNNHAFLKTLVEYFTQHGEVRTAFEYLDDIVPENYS
Assay: fluorescence anisotropy

BINDER | Kd [nM]
UUUUUUUUUUUUUUU (ssRNA) [U15 ssRNA] | 1080
